# Target Entity: T1, TNFR1 (Homo sapiens, UniProt P19438)
# T1 chain: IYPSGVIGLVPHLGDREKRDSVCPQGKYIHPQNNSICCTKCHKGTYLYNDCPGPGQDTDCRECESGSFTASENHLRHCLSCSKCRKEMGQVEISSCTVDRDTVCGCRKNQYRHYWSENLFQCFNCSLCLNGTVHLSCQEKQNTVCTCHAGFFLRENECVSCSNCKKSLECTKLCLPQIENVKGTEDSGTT
# Method Description: yeast display SC50
Exercise: for every item that follows, state its recorded apparent Kd (screen).
Record the value in pM, omitting the unit from your answer.

Query: Let me know recorded apparent Kd (screen) for E5K (designed binder) MTLQKLLREEALRRAEAEAFRYALELLAEKFPEQKEYLLDLAEEIESQIRSLSGVDVEDVRKFLDKEWAWVKELLAEHPAELAEVEAARAARLAELRAEVEAKVAA , thanks.
Response: 539

Query: Let me know recorded apparent Kd (screen) for M1K (designed binder) KTLQELLREEALRRAEAEAFRYALELLAEKFPEQKEYLLDLAEEIESQIRSLSGVDVEDVRKFLDKEWAWVKELLAEHPAELAEVEAARAARLAELRAEVEAKVAA , thanks.
Response: 490

Query: Let me know recorded apparent Kd (screen) for R14D (designed binder) MTLQELLREEALRDAEAEAFRYALELLAEKFPEQKEYLLDLAEEIESQIRSLSGVDVEDVRKFLDKEWAWVKELLAEHPAELAEVEAARAARLAELRAEVEAKVAA , thanks.
Response: 335

Query: Let me know recorded apparent Kd (screen) for A17W (designed binder) MTLQELLREEALRRAEWEAFRYALELLAEKFPEQKEYLLDLAEEIESQIRSLSGVDVEDVRKFLDKEWAWVKELLAEHPAELAEVEAARAARLAELRAEVEAKVAA , thanks.
Response: 539

Query: Let me know recorded apparent Kd (screen) for D59E (designed binder) MTLQELLREEALRRAEAEAFRYALELLAEKFPEQKEYLLDLAEEIESQIRSLSGVDVEEVRKFLDKEWAWVKELLAEHPAELAEVEAARAARLAELRAEVEAKVAA , thanks.
Response: 539

Query: Let me know recorded apparent Kd (screen) for E84Y (designed binder) MTLQELLREEALRRAEAEAFRYALELLAEKFPEQKEYLLDLAEEIESQIRSLSGVDVEDVRKFLDKEWAWVKELLAEHPAELAYVEAARAARLAELRAEVEAKVAA , thanks.
Response: 718

Query: Let me know recorded apparent Kd (screen) for E29L (designed binder) MTLQELLREEALRRAEAEAFRYALELLALKFPEQKEYLLDLAEEIESQIRSLSGVDVEDVRKFLDKEWAWVKELLAEHPAELAEVEAARAARLAELRAEVEAKVAA , thanks.
Response: 539

Query: Let me know recorded apparent Kd (screen) for E101T (designed binder) MTLQELLREEALRRAEAEAFRYALELLAEKFPEQKEYLLDLAEEIESQIRSLSGVDVEDVRKFLDKEWAWVKELLAEHPAELAEVEAARAARLAELRAEVTAKVAA , thanks.
Response: 1050

Query: Let me know recorded apparent Kd (screen) for F20W (designed binder) MTLQELLREEALRRAEAEAWRYALELLAEKFPEQKEYLLDLAEEIESQIRSLSGVDVEDVRKFLDKEWAWVKELLAEHPAELAEVEAARAARLAELRAEVEAKVAA , thanks.
Response: 4830

Query: Let me know recorded apparent Kd (screen) for D40C (designed binder) MTLQELLREEALRRAEAEAFRYALELLAEKFPEQKEYLLCLAEEIESQIRSLSGVDVEDVRKFLDKEWAWVKELLAEHPAELAEVEAARAARLAELRAEVEAKVAA , thanks.
Response: 790

Query: Let me know recorded apparent Kd (screen) for E81F (designed binder) MTLQELLREEALRRAEAEAFRYALELLAEKFPEQKEYLLDLAEEIESQIRSLSGVDVEDVRKFLDKEWAWVKELLAEHPAFLAEVEAARAARLAELRAEVEAKVAA , thanks.
Response: 718

Query: Let me know recorded apparent Kd (screen) for Q34P (designed binder) MTLQELLREEALRRAEAEAFRYALELLAEKFPEPKEYLLDLAEEIESQIRSLSGVDVEDVRKFLDKEWAWVKELLAEHPAELAEVEAARAARLAELRAEVEAKVAA , thanks.
Response: 490

Query: Let me know recorded apparent Kd (screen) for K30H (designed binder) MTLQELLREEALRRAEAEAFRYALELLAEHFPEQKEYLLDLAEEIESQIRSLSGVDVEDVRKFLDKEWAWVKELLAEHPAELAEVEAARAARLAELRAEVEAKVAA , thanks.
Response: 490

Query: Let me know recorded apparent Kd (screen) for L27T (designed binder) MTLQELLREEALRRAEAEAFRYALELTAEKFPEQKEYLLDLAEEIESQIRSLSGVDVEDVRKFLDKEWAWVKELLAEHPAELAEVEAARAARLAELRAEVEAKVAA , thanks.
Response: 539

Query: Let me know recorded apparent Kd (screen) for L74M (designed binder) MTLQELLREEALRRAEAEAFRYALELLAEKFPEQKEYLLDLAEEIESQIRSLSGVDVEDVRKFLDKEWAWVKEMLAEHPAELAEVEAARAARLAELRAEVEAKVAA , thanks.
Response: 956

Query: Let me know recorded apparent Kd (screen) for A28R (designed binder) MTLQELLREEALRRAEAEAFRYALELLREKFPEQKEYLLDLAEEIESQIRSLSGVDVEDVRKFLDKEWAWVKELLAEHPAELAEVEAARAARLAELRAEVEAKVAA , thanks.
Response: 12500
